Provenance of the data: patent US6806269B1

A collection of molecules and their measured pIC50
# SYSTEM_UNDER_TEST: HSV-1 protease (assemblin) (Human herpesvirus 1, UniProt P10210)
# Construct: encoding residues 1-288 of HSV-1 UL26 open reading frame and 32 heterologous amino acid; 6xHis (N); made in house
# Sequence (P10210 1-288): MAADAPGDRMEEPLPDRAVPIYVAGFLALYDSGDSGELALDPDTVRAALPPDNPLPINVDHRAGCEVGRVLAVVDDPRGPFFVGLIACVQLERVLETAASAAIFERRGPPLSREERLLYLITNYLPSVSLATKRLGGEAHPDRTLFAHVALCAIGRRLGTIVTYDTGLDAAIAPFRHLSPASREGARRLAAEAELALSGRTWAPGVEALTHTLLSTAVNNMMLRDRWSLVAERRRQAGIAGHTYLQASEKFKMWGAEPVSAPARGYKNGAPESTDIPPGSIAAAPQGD
# ASSAY_COMMENT: Enzymatic assay for HSV-1 protease (assemblin) inhibition (FP assay / HPLC assay)
# Type: biochemical
# TEST_CONDITIONS: recombinant HSV-1 protease; 30 minute pre-incubation at room temperature; FP or HPLC format not stated; read-out: ENZYME IC50
The read-out pIC50 is expressed as -log10 of concentration in moles per litre.

Sample records with pIC50:
[
  {
    "MOLECULE": "Cc1c(NC(=O)OC(C)(C)C)ccc2nc(N(CCC#N)C3CC3)oc(=O)c12 [Compound 13]",
    "pIC50": 5.41
  },
  {
    "MOLECULE": "COc1ccc(CN(C)c2nc3ccc(NC(=O)OC(C)(C)C)c(C)c3c(=O)o2)cc1 [Compound 3]",
    "pIC50": 6.22
  },
  {
    "MOLECULE": "Cc1c(NC(=O)OC(C)(C)C)ccc2nc(N(C)Cc3ccccc3)oc(=O)c12 [Compound 1]",
    "pIC50": 6.22
  },
  {
    "MOLECULE": "Cc1cccc2nc(N(C)Cc3ccccn3)oc(=O)c12 [CC3, reference compound]",
    "pIC50": 5.49
  },
  {
    "MOLECULE": "Cc1cccc2nc(N(C)CCN3CCOCC3)oc(=O)c12 [CC6, reference compound]",
    "pIC50": 4.93
  },
  {
    "MOLECULE": "Cc1c(NC(=O)OC(C)(C)C)ccc2nc(N(C)C(C)C)oc(=O)c12 [Compound 10]",
    "pIC50": 5.11
  },
  {
    "MOLECULE": "Cc1c(NC(=O)OC(C)(C)C)ccc2nc(N(C)Cc3ccc(N(C)C)cc3)oc(=O)c12 [Compound 4]",
    "pIC50": 5.89
  },
  {
    "MOLECULE": "Cc1c(NC(=O)OC(C)(C)C)ccc2nc(N3CCN(C(=O)c4cccs4)CC3)oc(=O)c12 [Compound 17]",
    "pIC50": 5.38
  }
]

pIC50 for Cc1c(NC(=O)OC(C)(C)C)ccc2nc(N3CCN(C(=O)c4ccco4)CC3)oc(=O)c12 [Compound 14] is 5.70

* * *

A collection of compounds and their measured inhibition at 50 µM
# SYSTEM_UNDER_TEST: Human leukocyte elastase (HLE) (Homo sapiens)
# Construct: purchased CALBIOCHEM
# Sequence (P08246 30-267): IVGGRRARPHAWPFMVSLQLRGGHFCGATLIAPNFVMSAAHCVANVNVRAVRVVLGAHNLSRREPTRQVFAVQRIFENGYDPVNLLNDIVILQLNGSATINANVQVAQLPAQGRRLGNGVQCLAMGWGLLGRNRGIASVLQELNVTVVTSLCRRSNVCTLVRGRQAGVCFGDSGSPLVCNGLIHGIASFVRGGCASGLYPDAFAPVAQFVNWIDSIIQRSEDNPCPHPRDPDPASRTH
# ASSAY_COMMENT: Human leukocyte elastase assay
# Format: biochemical
# TEST_CONDITIONS: 50 μM compound; 30 minutes pre-incubation
# Experimental: Human Leukocyte Elastase Assay Human leukocyte elastase (HLE) (CALBIOCHEM) was dissolved in saline at 1 mg/ml and further diluted 1/10 in assay buffer (0.2 M Tris, pH 8.0) before use. 0.75 μl of test compound in DMF (or DMF alone), 50 μl of assay buffer and 50 μl of enzyme were added to 96 well plate, mixed and pre-incubated for 30 minutes at ambient temperature. […] The increase in absorbance at 405 nm was monitored for 3 min. with BIO-RAD model 3550 microplate reader.
The reply should be a number in %, with the unit left off.

Sample records with inhibition at 50 µM:
[
  {
    "COMPOUND": "COc1ccc(CN(C)c2nc3ccc(NC(=O)OC(C)(C)C)c(C)c3c(=O)o2)cc1",
    "inhibition at 50 µM, %": 0
  },
  {
    "COMPOUND": "Cc1c(NC(=O)OC(C)(C)C)ccc2nc(N(C)CCc3c[nH]c4ccccc34)oc(=O)c12",
    "inhibition at 50 µM, %": 0
  },
  {
    "COMPOUND": "Cc1cccc2nc(N(C)CCN3CCOCC3)oc(=O)c12 [CC6, reference compound]",
    "inhibition at 50 µM, %": 99
  },
  {
    "COMPOUND": "Cc1c(NC(=O)OC(C)(C)C)ccc2nc(N3CCN(C(=O)c4cccs4)CC3)oc(=O)c12",
    "inhibition at 50 µM, %": 0
  },
  {
    "COMPOUND": "Cc1c(NC(=O)OC(C)(C)C)ccc2nc(N(C)Cc3ccccc3)oc(=O)c12",
    "inhibition at 50 µM, %": 32
  }
]

inhibition at 50 µM for Cc1cccc2nc(N(C)Cc3ccccn3)oc(=O)c12 [CC3, reference compound] is 100

inhibition at 50 µM for Cc1c(NC(=O)OC(C)(C)C)ccc2nc(N3CCOCC3)oc(=O)c12 is 0

inhibition at 50 µM for Cc1c(NC(=O)OC(C)(C)C)ccc2nc(N3CC=CCC3)oc(=O)c12 is 0

inhibition at 50 µM for Cc1c(NC(=O)OC(C)(C)C)ccc2nc(N(CCC#N)C3CC3)oc(=O)c12 is 0

inhibition at 50 µM for Cc1c(NC(=O)OC(C)(C)C)ccc2nc(N(C)Cc3ccc(N(C)C)cc3)oc(=O)c12 is 0

inhibition at 50 µM for Cc1c(NC(=O)OC(C)(C)C)ccc2nc(N3CCN(S(=O)(=O)c4ccccc4)CC3)oc(=O)c12 is 0

inhibition at 50 µM for Cc1c(NC(=O)c2c(F)cc(F)cc2F)ccc2nc(N(C(C)C)C(C)C)oc(=O)c12 is 13.4

inhibition at 50 µM for Cc1c(NC(=O)OC(C)(C)C)ccc2nc(N3CCCC4CCCCC43)oc(=O)c12 (centres unmarked) is 0

inhibition at 50 µM for Cc1cccc2nc(N3CCN(C)CC3)oc(=O)c12 [CC5, reference compound] is 100

* * *

# SYSTEM_UNDER_TEST: Bovine pancreas α-chymotripsin (Bos taurus, UniProt P00766)
# Construct: purchased Sigma type II; host or cells: bovine pancreas
# ASSAY_COMMENT: Chymotripsin assay
# Format: biochemical
# TEST_CONDITIONS: 50 μM compound; 30 minutes pre-incubation; read-out: INHIBITION AT 50 μM CHYMOTRYPSIN (%)
RECORDED_METRIC: inhibition at 50 µM (%)
The reply should be a number in %, with the unit left off.

Sample records with inhibition at 50 µM:
[
  {
    "COMPOUND": "Cc1c(NC(=O)OC(C)(C)C)ccc2nc(N(C)Cc3ccc(N(C)C)cc3)oc(=O)c12 [Compound 4]",
    "inhibition at 50 µM [%]": 0
  },
  {
    "COMPOUND": "CC(=O)N1CCN(c2nc3ccc(NC(=O)OC(C)(C)C)c(C)c3c(=O)o2)CC1 [Compound 16]",
    "inhibition at 50 µM [%]": 0
  },
  {
    "COMPOUND": "C=CCN(C)c1nc2ccc(NC(=O)OC(C)(C)C)c(C)c2c(=O)o1 [Compound 7]",
    "inhibition at 50 µM [%]": 6.9
  },
  {
    "COMPOUND": "Cc1cccc2nc(N(C)Cc3ccccc3)oc(=O)c12 [CC2, reference compound]",
    "inhibition at 50 µM [%]": 101
  },
  {
    "COMPOUND": "Cc1c(NC(=O)c2c(F)cc(F)cc2F)ccc2nc(N(C(C)C)C(C)C)oc(=O)c12 [Compound 12]",
    "inhibition at 50 µM [%]": 22.4
  },
  {
    "COMPOUND": "Cc1c(NC(=O)OC(C)(C)C)ccc2nc(N3CCCC4CCCCC43)oc(=O)c12 (stereo not shown) [Compound 11]",
    "inhibition at 50 µM [%]": 0
  },
  {
    "COMPOUND": "Cc1c(NC(=O)OC(C)(C)C)ccc2nc(N(C)Cc3ccccn3)oc(=O)c12 [Compound 18]",
    "inhibition at 50 µM [%]": 0
  },
  {
    "COMPOUND": "Cc1c(NC(=O)OC(C)(C)C)ccc2nc(N3CCN(C(=O)c4cccs4)CC3)oc(=O)c12 [Compound 17]",
    "inhibition at 50 µM [%]": 0
  },
  {
    "COMPOUND": "Cc1c(NC(=O)c2ccccc2)ccc2nc(N(C)Cc3ccccc3)oc(=O)c12 [Compound 2]",
    "inhibition at 50 µM [%]": 7
  },
  {
    "COMPOUND": "Cc1c(NC(=O)OC(C)(C)C)ccc2nc(N(C)Cc3ccccc3)oc(=O)c12 [Compound 1]",
    "inhibition at 50 µM [%]": 13
  }
]

inhibition at 50 µM for Cc1c(NC(=O)OC(C)(C)C)ccc2nc(N3CCN(S(=O)(=O)c4ccccc4)CC3)oc(=O)c12 [Compound 15] is 0

inhibition at 50 µM for Cc1cccc2nc(N3CCN(C)CC3)oc(=O)c12 [CC5, reference compound] is 98

inhibition at 50 µM for Cc1c(NC(=O)OC(C)(C)C)ccc2nc(N3CCOCC3)oc(=O)c12 [Compound 6] is 0

inhibition at 50 µM for Cc1c(NC(=O)OC(C)(C)C)ccc2nc(N(CCC#N)C3CC3)oc(=O)c12 [Compound 13] is 2.2

inhibition at 50 µM for Cc1cccc2nc(N(C)Cc3ccccn3)oc(=O)c12 [CC3, reference compound] is 100

inhibition at 50 µM for Cc1c(NC(=O)OC(C)(C)C)ccc2nc(N(C)CCc3c[nH]c4ccccc34)oc(=O)c12 [Compound 5] is 13.1
